system: DU-145 prostate; experiment: NCI-60 one-dose screen, 48 h (100 = growth as untreated, 0 = no growth, -100 = all killed); settings: 10 µM unless noted
Compounds without any hit were thinned out: in the full panel of roughly 83,000, 20% have a hit. Calls of active or inactive are those of the source. How the source made its calls: active means growth percent below 10; inactive means the rest.
Recorded growth values for a group of compounds are listed next.

Before answering, review these 5 worked examples.
# sample smiles, growth
measured = [
    ("CN1CCN(c2ccc3nc(-c4[nH]ncc4Nc4ncnc5c4OCCCN5)[nH]c3c2)CC1", "-27.6% (active)"),
    ("Cc1[c-]onc1C.Cc1[c-]onc1C.[Ag].[Ag].[NH-]S(=O)(=O)c1ccc(N=Nc2cc(N=Nc3ccc(S([NH-])(=O)=O)cc3)c3c(NC(=O)C(Cl)Cl)cccc3c2OC(=O)C(Cl)Cl)cc1", "70.5% (inactive)"),
    ("COc1cnc2c(c1)C(=O)c1c-2n(CCCNCCN2CCOCC2)c(=O)c2cc([N+](=O)[O-])ccc12", "2.63% (active)"),
    ("COc1cccc(-c2nn(-c3ccccc3)cc2-c2ccnc(NCCCNS(=O)(=O)c3ccc(Cl)cc3)c2)c1", "67.1% (inactive)"),
    ("COc1cc(-c2cc(-c3nc4ccccc4[nH]3)[nH]n2)cc(OC)c1OC", "50.4% (inactive)"),
]

For COc1ccc2[nH]c(-c3ccc(Cl)cc3)cc(=O)c2c1 , write its growth.
105% (inactive)
